Reported MIC by item:
- Tested on: Streptococcus pneumoniae
- Measurement protocol: Antibacterial activity against erythromycin-susceptible Streptococcus pneumoniae by agar microdilution method
- Format: functional

Check out these entries, answers already filled in.
>  <Molecule>
CC[C@H]1OC(=O)[C@H](C)C(=O)[C@H](C)[C@@H](O[C@@H]2O[C@H](C)C[C@H](N(C)C)[C@H]2O)[C@](C)(OC)C[C@@H](C)C(=O)[C@H](C)[C@H]2C(NC(=O)/C=C/CCc3cnc4ccccc4c3)C(=O)O[C@@]21C (stereo partly specified)

>  <MIC>
≤ 0.125 µg/mL

$$$$
>  <Molecule>
CC[C@H]1OC(=O)[C@H](C)C(=O)[C@H](C)[C@@H](O[C@@H]2O[C@H](C)C[C@H](N(C)C)[C@H]2O)[C@](C)(OC)C[C@@H](C)C(=O)[C@H](C)[C@H]2C(NC(=O)CCc3cnc4c(OC)cccc4c3)C(=O)O[C@@]21C (stereo partly specified)

>  <MIC>
≤ 0.125 µg/mL

$$$$
>  <Molecule>
CC[C@H]1OC(=O)[C@H](C)C(=O)[C@H](C)[C@@H](O[C@@H]2O[C@H](C)C[C@H](N(C)C)[C@H]2O)[C@](C)(OC)C[C@@H](C)C(=O)[C@H](C)[C@H]2C(NC(=O)CCc3ccccn3)C(=O)O[C@@]21C (stereo partly specified)

>  <MIC>
≤ 0.125 µg/mL

$$$$
>  <Molecule>
CC[C@H]1OC(=O)[C@H](C)C(=O)[C@H](C)[C@@H](O[C@@H]2O[C@H](C)C[C@H](N(C)C)[C@H]2O)[C@](C)(OC)C[C@@H](C)C(=O)[C@H](C)[C@H]2C(N)C(=O)O[C@@]21C (stereo partly specified)

>  <MIC>
≤ 0.125 µg/mL

$$$$
>  <Molecule>
CC[C@H]1OC(=O)[C@H](C)C(=O)[C@H](C)[C@@H](O[C@@H]2O[C@H](C)C[C@H](N(C)C)[C@H]2O)[C@](C)(OC)C[C@@H](C)C(=O)[C@H](C)[C@H]2C(NC(=O)CCCCc3cnc4ccccc4c3)C(=O)O[C@@]21C (stereo partly specified)

>  <MIC>
≤ 0.125 µg/mL

$$$$

Next molecule, MIC to be filled in.
Lookup: Using known records, supply MIC for CC[C@H]1OC(=O)[C@H](C)C(=O)[C@H](C)[C@@H](O[C@@H]2O[C@H](C)C[C@H](N(C)C)[C@H]2O)[C@](C)(OC)C[C@@H](C)C(=O)[C@H](C)[C@H]2N(CCCCn3cnc(-c4cccnc4)c3)C(=O)O[C@]12C [TELITHROMYCIN]
Found: ≤ 0.06 µg/mL

###

- System: Streptococcus pneumoniae
- Measurement protocol: Antibacterial activity against erythromycin-susceptible Streptococcus pneumoniae by agar microdilution method
- Format: functional
Measured property: MIC

>  <Compound>
CC[C@H]1OC(=O)[C@H](C)C(=O)[C@H](C)[C@@H](O[C@@H]2O[C@H](C)C[C@H](N(C)C)[C@H]2O)[C@](C)(OC)C[C@@H](C)C(=O)[C@H](C)[C@H]2C(NC(=O)CNC(=O)CSc3cnc4ccccc4n3)C(=O)O[C@@]21C (some centres undefined)

>  <Result>
0.25 µg/mL

$$$$
>  <Compound>
CC[C@H]1OC(=O)[C@H](C)C(=O)[C@H](C)[C@@H](O[C@@H]2O[C@H](C)C[C@H](N(C)C)[C@H]2O)[C@](C)(OC)C[C@@H](C)C(=O)[C@H](C)[C@H]2C(NC(=O)CSc3cnc4ccccc4n3)C(=O)O[C@@]21C (some centres undefined)

>  <Result>
≤ 0.06 µg/mL

$$$$
>  <Compound>
CC[C@H]1OC(=O)[C@H](C)[C@@H](O[C@H]2C[C@@](C)(OC)[C@@H](O)[C@H](C)O2)[C@H](C)[C@@H](O[C@@H]2O[C@H](C)C[C@H](N(C)C)[C@H]2O)[C@](C)(O)C[C@@H](C)CN(C)[C@H](C)[C@@H](O)[C@]1(C)O

>  <Result>
≤ 0.125 µg/mL

$$$$

Now examine the next entry.
Lookup: Report MIC from Streptococcus pneumoniae testing of CC[C@H]1OC(=O)[C@H](C)C(=O)[C@H](C)[C@@H](O[C@@H]2O[C@H](C)C[C@H](N(C)C)[C@H]2O)[C@](C)(OC)C[C@@H](C)C(=O)[C@H](C)[C@H]2C(NC(=O)CCc3ccccc3)C(=O)O[C@@]21C (some centres undefined)
Found: ≤ 0.125 µg/mL

###

- Tested on: Streptococcus pneumoniae
- Measurement protocol: Antibacterial activity against erythromycin-susceptible Streptococcus pneumoniae by agar microdilution method
- Format: functional
// values below are reported MIC

>  <Molecule>
CC[C@H]1OC(=O)[C@H](C)C(=O)[C@H](C)[C@@H](O[C@@H]2O[C@H](C)C[C@H](N(C)C)[C@H]2O)[C@](C)(OC)C[C@@H](C)C(=O)[C@H](C)[C@H]2C(NC(=O)CCCCc3cnc4c(OC)cccc4c3)C(=O)O[C@@]21C (some centres not stated)

>  <Test target>
Streptococcus pneumoniae

>  <Measured property>
MIC

>  <Result>
≤ 0.125 µg/mL

$$$$

Next up:
Lookup: Provide only the value of recorded MIC for CC[C@H]1OC(=O)[C@H](C)C(=O)[C@H](C)[C@@H](O[C@@H]2O[C@H](C)C[C@H](N(C)C)[C@H]2O)[C@](C)(OC)C[C@@H](C)C(=O)[C@H](C)[C@H]2C(NC(=O)/C=C/CCc3cnc4ccc(OC)cc4c3)C(=O)O[C@@]21C (some centres not stated)
Found: ≤ 0.125 µg/mL
